These measurements were taken from paper PMC4012456.

target: murine muscle-type nAChR (Mus musculus, UniProt P02716+P04756+P09690+P20782); construct: expressed in transfected cells; host or cells: Xenopus laevis oocytes injected with plasmid DNA (CMV promoter); assay: electrophysiology on muscle nAChR expressed in Xenopus laevis oocytes; assay type: cell-based; settings: 10 μM compound; wash out
Sequence (P04756 21-457): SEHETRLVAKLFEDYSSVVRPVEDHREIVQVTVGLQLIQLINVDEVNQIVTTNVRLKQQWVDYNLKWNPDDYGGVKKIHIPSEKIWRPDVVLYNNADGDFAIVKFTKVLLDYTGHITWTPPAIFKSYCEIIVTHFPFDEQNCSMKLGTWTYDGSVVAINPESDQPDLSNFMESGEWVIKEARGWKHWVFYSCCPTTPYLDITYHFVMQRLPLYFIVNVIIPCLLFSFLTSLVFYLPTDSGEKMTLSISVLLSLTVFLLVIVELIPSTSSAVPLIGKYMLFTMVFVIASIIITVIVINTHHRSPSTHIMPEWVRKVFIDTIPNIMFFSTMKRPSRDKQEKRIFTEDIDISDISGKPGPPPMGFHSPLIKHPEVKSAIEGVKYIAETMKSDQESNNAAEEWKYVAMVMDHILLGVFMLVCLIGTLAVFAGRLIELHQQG
Sequence (P09690 24-501): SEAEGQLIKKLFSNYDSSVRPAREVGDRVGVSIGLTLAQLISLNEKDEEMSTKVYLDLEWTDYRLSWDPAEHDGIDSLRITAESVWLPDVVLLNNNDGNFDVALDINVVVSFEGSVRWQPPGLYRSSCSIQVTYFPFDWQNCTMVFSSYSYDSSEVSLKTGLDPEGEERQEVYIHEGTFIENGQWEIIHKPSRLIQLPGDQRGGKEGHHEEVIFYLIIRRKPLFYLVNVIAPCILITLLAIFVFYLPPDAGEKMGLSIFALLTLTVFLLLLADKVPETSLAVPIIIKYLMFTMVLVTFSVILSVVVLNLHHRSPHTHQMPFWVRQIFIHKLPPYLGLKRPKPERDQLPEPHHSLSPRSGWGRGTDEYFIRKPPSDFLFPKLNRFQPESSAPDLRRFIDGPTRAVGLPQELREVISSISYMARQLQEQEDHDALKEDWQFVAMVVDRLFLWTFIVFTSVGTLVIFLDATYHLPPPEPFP
Sequence (P02716 25-520): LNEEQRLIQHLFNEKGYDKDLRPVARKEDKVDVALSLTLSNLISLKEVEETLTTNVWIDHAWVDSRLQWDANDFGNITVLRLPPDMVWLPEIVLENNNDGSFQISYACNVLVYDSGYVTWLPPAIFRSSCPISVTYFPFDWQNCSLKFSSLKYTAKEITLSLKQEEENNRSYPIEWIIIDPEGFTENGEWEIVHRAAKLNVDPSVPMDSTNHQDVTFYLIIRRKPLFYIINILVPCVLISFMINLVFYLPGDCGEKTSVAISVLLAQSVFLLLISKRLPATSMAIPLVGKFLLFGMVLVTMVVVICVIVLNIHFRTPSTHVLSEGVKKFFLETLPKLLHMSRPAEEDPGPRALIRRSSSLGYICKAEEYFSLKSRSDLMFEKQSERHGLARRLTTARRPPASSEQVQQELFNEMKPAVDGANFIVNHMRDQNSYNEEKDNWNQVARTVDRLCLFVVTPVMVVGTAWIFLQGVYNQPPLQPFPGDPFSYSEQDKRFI
Sequence (P20782 21-493): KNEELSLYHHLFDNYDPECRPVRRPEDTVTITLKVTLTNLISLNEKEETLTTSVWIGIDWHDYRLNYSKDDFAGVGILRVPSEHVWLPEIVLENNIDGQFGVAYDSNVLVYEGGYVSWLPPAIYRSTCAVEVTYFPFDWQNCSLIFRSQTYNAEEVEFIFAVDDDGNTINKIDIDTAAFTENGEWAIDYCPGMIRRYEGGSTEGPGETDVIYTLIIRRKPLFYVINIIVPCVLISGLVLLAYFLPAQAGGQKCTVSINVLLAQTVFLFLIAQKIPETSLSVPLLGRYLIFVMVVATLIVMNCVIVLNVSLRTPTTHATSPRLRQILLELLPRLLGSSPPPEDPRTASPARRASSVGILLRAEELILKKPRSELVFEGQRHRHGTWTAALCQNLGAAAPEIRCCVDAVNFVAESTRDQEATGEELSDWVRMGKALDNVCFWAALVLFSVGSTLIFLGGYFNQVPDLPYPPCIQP
propertyMeasured: reversibility of inhibition of muscle nAChR

C[C@@H](N)[C@H](O)CCCCCCCCCCCCCCC(=O)CCCCCCC[C@@H](O)[C@@H](C)N = very slowly reversible
C[C@@H](N)[C@H](O)CCCCCCCC(=O)CCCCCCCCCCCCCC[C@@H](O[C@@H]1O[C@H](CO)[C@H](O)[C@H](O)[C@H]1O)[C@@H](C)N = very slowly reversible
CC/C=C/[C@@H]1CC[C@]2(C[C@H]3CC[C@H]4[C@@H](C(=O)OC(CC)CCCCCCCCCCCCC[C@@H]5O[C@](O)(CCN)[C@H](O)N(CCCN)C5=O)[C@@]5(CCC[C@H](C)O5)NC(=N2)N34)O1 (stereo partly shown) = very slowly reversible
